Test system: HIV-1 303B
Assay: microbe, parasite or virus in culture
Format: cell-based
Conditions: classification from combination indices and confidence intervals
metric: overall antiviral effect of the two-drug combination with Example 19 (in words)

{"compound": "O=c1[nH]cnc2c1ncn2[C@H]1CC[C@@H](CO)O1 [Didanosine, didanosine]", "testSystem": "HIV-1 303B", "observedMeasurement": "synergistic"}
{"compound": "Nc1nc(=O)n([C@@H]2CS[C@H](CO)O2)cc1F [Emtricitabine, emtricitabine]", "testSystem": "HIV-1 303B", "observedMeasurement": "synergistic"}
{"compound": "C[C@H](Cn1cnc2c(N)ncnc21)OCP(=O)(O)O [Tenofovir, tenofovir]", "testSystem": "HIV-1 303B", "observedMeasurement": "synergistic to additive"}
{"compound": "Cc1cn([C@H]2C=C[C@@H](CO)O2)c(=O)[nH]c1=O [Stavudine, stavudine]", "testSystem": "HIV-1 303B", "observedMeasurement": "synergistic"}
{"compound": "Cc1cn([C@H]2C[C@H](N=[N+]=[N-])[C@@H](CO)O2)c(=O)[nH]c1=O [Zidovudine]", "testSystem": "HIV-1 303B", "observedMeasurement": "synergistic to additive"}

Where these numbers come from: patent US7491819B1
